The reader will find IC50 measurements below, all made with Cholinesterase (Equus caballus).
Sequence (P81908 whole entry): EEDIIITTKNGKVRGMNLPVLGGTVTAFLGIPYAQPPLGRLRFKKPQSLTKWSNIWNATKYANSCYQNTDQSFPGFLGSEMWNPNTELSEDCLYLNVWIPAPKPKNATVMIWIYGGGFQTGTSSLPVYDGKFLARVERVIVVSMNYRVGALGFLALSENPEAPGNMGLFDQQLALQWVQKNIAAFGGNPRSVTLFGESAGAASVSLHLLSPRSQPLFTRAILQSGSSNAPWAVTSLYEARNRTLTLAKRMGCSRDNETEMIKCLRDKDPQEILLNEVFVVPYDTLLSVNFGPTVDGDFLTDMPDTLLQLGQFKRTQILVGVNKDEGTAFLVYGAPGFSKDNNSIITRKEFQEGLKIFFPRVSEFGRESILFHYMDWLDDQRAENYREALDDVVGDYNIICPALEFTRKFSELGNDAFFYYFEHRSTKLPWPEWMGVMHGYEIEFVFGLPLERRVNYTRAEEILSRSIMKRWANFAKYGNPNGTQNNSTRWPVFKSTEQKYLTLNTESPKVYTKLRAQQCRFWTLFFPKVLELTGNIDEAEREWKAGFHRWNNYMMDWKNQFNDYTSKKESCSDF

COMPOUND_STRING	IC50 / nM
O=c1ccc2ccc(OCCCCCN3CCN(CCCNc4c5c(nc6ccccc46)CCCC5)CC3)cc2o1	41.8
Cc1c(Cl)c(=O)oc2cc(OCCN3CCN(CCCNc4c5c(nc6ccccc46)CCCC5)CC3)ccc12	72.6
CCOc1cc(=O)oc2cc(OCCN3CCN(CCCNc4c5c(nc6ccccc46)CCCC5)CC3)ccc12	86.6

---

- Species: Homo sapiens
- METHOD_NOTES: Selectivity index, ratio of IC50 for human MAO-A to IC50 for human MAO-B
Mark true for reported Ratio IC50 of 10 or greater; mark false for anything smaller.

COMPOUND_STRING	LABEL_CLASS
O=c1ccc2ccc(OCCCCN3CCN(CCCNc4c5c(nc6ccccc46)CCCC5)CC3)cc2o1	true
O=c1ccc2ccc(OCCCCCN3CCN(CCNc4c5c(nc6ccccc46)CCCC5)CC3)cc2o1	false
Cc1cc2ccc(OCCN3CCN(CCCNc4c5c(nc6ccccc46)CCCC5)CC3)cc2oc1=O	true
O=c1ccc2ccc(OCCCCCCN3CCN(CCCNc4c5c(nc6ccccc46)CCCC5)CC3)cc2o1	false
COc1cc(=O)oc2cc(OCCN3CCN(CCCNc4c5c(nc6ccccc46)CCCC5)CC3)ccc12	true
O=c1ccc2ccc(OCCCN3CCN(CCCNc4c5c(nc6ccccc46)CCCC5)CC3)cc2o1	true
Cc1c(C)c2ccc(OCCN3CCN(CCCNc4c5c(nc6ccccc46)CCCC5)CC3)cc2oc1=O	true
CCOc1cc(=O)oc2cc(OCCN3CCN(CCCNc4c5c(nc6ccccc46)CCCC5)CC3)ccc12	false
O=c1ccc2ccc(OCCCCCN3CCN(CCCNc4c5c(nc6ccccc46)CCCC5)CC3)cc2o1	false
O=c1ccc2ccc(OCCN3CCN(CCCNc4c5c(nc6ccccc46)CCCC5)CC3)cc2o1	true
O=c1ccc2ccc(OCCCCN3CCN(CCNc4c5c(nc6ccccc46)CCCC5)CC3)cc2o1	true
O=c1ccc2ccc(OCCCN3CCN(CCNc4c5c(nc6ccccc46)CCCC5)CC3)cc2o1	true
O=c1oc2cc(OCCN3CCN(CCCNc4c5c(nc6ccccc46)CCCC5)CC3)ccc2c2c1CCCC2	true
Cc1cc(=O)oc2cc(OCCN3CCN(CCCNc4c5c(nc6ccccc46)CCCC5)CC3)ccc12	true
O=c1ccc2ccc(OCCN3CCN(CCNc4c5c(nc6ccccc46)CCCC5)CC3)cc2o1	true

Where do these numbers come from? They come from ChEMBL document CHEMBL3414495.
